Data provenance is paper PMC9633773.

Molecular target: BCL6 BTB (Homo sapiens, UniProt P41182)
Construct: the tag was removed by HRV-3C protease treatment, generating a simpler BCL6 5–129 product; Thioredoxin (N, cleaved yes); 6His (N, cleaved yes); made in house; host or cells: E. coli BL21-AI
Experiment: 19F ligand-observed NMR TFA-WVIP-NH2 peptide displacement assay
Format: binding
Settings: 200 µM compound, 200 µM TFA-WVIP-NH2, 6 µM BCL6 BTB; mean ± SD, n=2; hit if ≥ 30%
Measured Attribute: 19F LO-NMR, % peptide displaced (%)
Write down the numeric answer in % and omit the unit.

Example results:
>  <Compound>
COC(=O)C1=C(C)Nc2ncnn2C1c1ccc(C(=O)O)cc1 (centres unmarked)

>  <19F LO-NMR, % peptide displaced [%]>
33.5

$$$$
>  <Compound>
N#Cc1c(C(F)(F)F)cc(-c2cccs2)nc1SC(C(=O)O)c1ccccc1 (centres unmarked)

>  <19F LO-NMR, % peptide displaced [%]>
102

$$$$
>  <Compound>
CCCC1=C(C(=O)OCC)C(c2cccnc2)n2ncnc2N1 (centres unmarked)

>  <19F LO-NMR, % peptide displaced [%]>
82.5

$$$$
>  <Compound>
Cn1c(=O)n(C)c2cc(Nc3cc(SCc4ccccc4)ncn3)ccc21

>  <19F LO-NMR, % peptide displaced [%]>
100

$$$$

Now let's try a different one.
Task item: Report 19F LO-NMR, % peptide displaced, nothing else, for this compound: N#Cc1c(NCc2ccccc2)ccnc1Cl
Reply: 63

----------
Molecular target: BCL6 BTB domain (Homo sapiens, UniProt P41182)
Construct: the tag was removed by HRV-3C protease treatment, generating a simpler BCL6 5–129 product; Thioredoxin (N, cleaved yes); 6His (N, cleaved yes); made in house; host or cells: E. coli BL21-AI
Experiment: Fluorescence polarisation (FP) competition assay with BCOR-AF633 peptide
Assay type: biochemical
Conditions: repurchased hits
Measured Attribute: FP pIC50 Mean
Answer using only a numeral; do not append any unit.

Task item: Provide measured FP pIC50 Mean value, entry: CCC1=C(C(=O)OC)C(c2ccccc2F)n2ncnc2N1 (centres unmarked) [Compound 8]
Reply: 3.66

Task item: Quote FP pIC50 Mean reported for N#Cc1c(NCc2ccccc2)ccnc1Cl [Compound 21] please.
Reply: 3.92

Task item: Answer with reported FP pIC50 Mean of COc1cccc(CN(C)c2nc3c(cnn3C(C)(C)C)c(=O)[nH]2)c1 [Compound 20]
Reply: 3.18

Task item: Answer with the recorded FP pIC50 Mean for the compound listed here: O=C(NCc1ccccn1)c1csc(Nc2ccccc2Cl)n1 [Compound 14]
Reply: 3.74

Task item: Quickly give me recorded FP pIC50 Mean for Cc1cc(NCc2ccc3c(c2)OCO3)n2ncnc2n1 [Compound 9]
Reply: 3.32

----------
Target: Trx-6His-BCL6 BTB (Homo sapiens, UniProt P41182)
Construct: made in house; host or cells: E. coli BL21-AI
Test: TR-FRET assay, Trx-6His-BCL6 BTB / BCOR-A633 peptide
Format: biochemical
Conditions: 1 nM BCL6 BTB domain, geometric mean n=3–5; read-out: TR-FRET Geo Mean IC50
Measured Attribute: IC50 (nM)
Could you give me the number in nM? Just the number is fine.

Task item: Recall and state the measured IC50 for CNC(=O)c1cc(Nc2ccc3c(c2)n(CCC(C)(C)O)c(=O)n3C)c(C#N)c(Cl)n1 .
Reply: 500
